B1: EMD (parent)
chain: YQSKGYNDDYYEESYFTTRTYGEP

Variants of: B1
Experiment: protein stability index of a GFP-peptide fusion (GPS, HEK-293T) (PSI 1-6); higher = more stable;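 also: lentivirally expressed fusions sorted by FACS into six bins by GFP to DsRed ratio, PSI derived from sequencing read proportions per bin multiplied by bin number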
Settings: c terminus: a fixed tail appended
metric.name: protein stability index
Numbers only.

Hi! Can you tell me protein stability index for each of these variants?
1. G22A
2. E12H
3. Q2A
4. D9N
5. S14D
6. R19G

1. 2.1
2. 1.52
3. 2.15
4. 1.74
5. 2.44
6. 3.07

Hi! Can you tell me protein stability index for each of these variants?
1. S3T
2. K4Y
3. S14T
4. D8I
5. K4V
6. K4F
7. E23K
8. Y11F

1. 2.54
2. 2.06
3. 2.38
4. 2.05
5. 2.54
6. 1.69
7. 2.09
8. 1.68
